- Tested on: E-10 Cells
- MEASUREMENT_PROTOCOL: MTS cytotoxicity assay, E-10
- EXPERIMENTAL_CONDITIONS: 5 μM, two days
Reported values of percent cytotoxicity for individual entries
MEASURE: percent cytotoxicity (%)

>>> df
                                   molecule      target  readout_value
0  CN(C)C1C(=O)C(C#N)=C(O)C2(O)C(=O)C3=C(O)c4c(O)cccc4C(C)(O)C3CC12 (centres unmarked)  E-10 Cells            1.5
1  CC1(O)c2cccc(O)c2C(=O)C2=C(O)C3(O)C(=O)C(C(N)=O)=C(O)C(O)C3CC21 (centres unmarked)  E-10 Cells              0
2  CC1(O)c2cccc(O)c2C(=O)C2=C(O)C3C(=O)C(C(N)=O)=C(O)CC3CC21 (centres unmarked)  E-10 Cells              0
3  C[C@H]1c2cccc(O)c2C(O)=C2C(=O)[C@]3(O)C(O)=C(C(N)=O)C(=O)C[C@@H]3[C@@H](O)[C@@H]21  E-10 Cells              0
4  CC1(O)c2cccc(O)c2C(=O)C2=C(O)C3(O)C(=O)C(C(N)=O)=C(O)CC3CC21 (centres unmarked)  E-10 Cells            7.6
